src = paper PMC11610652

# pIC50 annotations
# Assayed target: SIRT2 (Homo sapiens, UniProt Q8IXJ6)
# Sequence (Q8IXJ6 2-389): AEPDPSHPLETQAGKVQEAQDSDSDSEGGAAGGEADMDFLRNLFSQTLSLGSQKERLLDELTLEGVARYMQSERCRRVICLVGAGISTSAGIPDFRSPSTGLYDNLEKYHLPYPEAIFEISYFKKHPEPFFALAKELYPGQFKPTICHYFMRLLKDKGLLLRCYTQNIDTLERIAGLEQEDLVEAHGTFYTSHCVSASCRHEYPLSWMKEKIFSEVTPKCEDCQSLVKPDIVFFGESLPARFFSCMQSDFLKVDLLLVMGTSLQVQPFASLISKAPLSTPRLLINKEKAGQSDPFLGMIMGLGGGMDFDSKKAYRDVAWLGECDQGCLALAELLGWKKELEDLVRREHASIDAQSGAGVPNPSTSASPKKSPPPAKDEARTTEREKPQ
# Experiment: fluorescence-based deacetylase assay kit, human recombinant enzyme
Note: pIC50 values are expressed as the negative base-10 logarithm of concentration in M.

Lab note: O=C(Nc1ccc2c(c1)C(=O)c1cc(NC(=O)Nc3nccs3)ccc1-2)Nc1nccs1 [SG1] gave pIC50 of 5.01

Lab note: O=C(Nc1ccc2c(c1)C(=O)c1cc(NC(=O)Nc3ccccn3)ccc1-2)Nc1ccccn1 [SG4] gave pIC50 of 5.18

Lab note: O=C(Nc1ccc2c(c1)C(=O)c1cc(NC(=O)Nc3ccon3)ccc1-2)Nc1ccon1 [SG3] gave pIC50 of 5.71
